Source listed as patent US20240084039A1.

# Target Or Test System: pre-existing anti-drug antibodies (ADA) present in human sera
# Assay Protocol: ELISA pre-existing ADA binding assay, confirmatory setup, test molecule coated, 20 human sera
Measured Endpoint: No of positive serum samples above 30% CCP (serum samples)
Answers are plain numbers.

Returns the measured No of positive serum samples above 30% CCP (serum samples) for the input binder. Input: PRO2918 (scFv) scFv: DIQMTQSPSSLSASVGDRVTITCQASESIYSSLAWYQQKPGKAPKLLIYLASTLASGVPSRFSGSGSGTDFTLTISSLQPEDFATYYCQSTDYTTSTHRNSFGTGTKVTVLGGGGGSGGGGSGGGGSGGGGSEVQLVESGGGRVQPGGSLRLSCAASGFSFSTTYYMCWVRQAPGKGLEWIGCTNTASSVRTYYATWAKGRFTISRDNSKNTVYLQMNSLRAEDTATYYCARDMGFADYALNLWGQGTQVTVSS 5

Attention now shifts to the item below.
Data request, read-out No of positive serum samples above 30% CCP (serum samples), for PRO2907 (scFv) scFv: DIQMTQSPASLSASVGDRVTITCQASQSIGTYLAWYQQKPGKPPKLLIYRAFILASGVPSRFSGSGSGTDFTLTISSLQPEDFATYYCQSNFYSDSTTIGPNAFGTGTKVTVLGGGGGSGGGGSGGGGSGGGGSEVQLVESGGGRVQPGGSLRLSCAASGFSFNSDYWIYWVRQAPGKGLEWIASIYGGSSGNTQYASWAQGRFTISRDNSKNTVYLQMNSLRAEDTAVYFCARGYVDYGGATDLWGQGTLVTVSS 3
